Please provide measured Drug uptake for the entries that follow.
- Test system: Liver
- test_description: Biodistribution in ddY mouse liver at 0.5 uCi, iv after 10 mins
- Type: ADME, organism-based
- run_parameters: in vivo
Answers are plain numbers, in % ID/g.

Recorded Drug uptake, per entry:
COc1ccc(-c2nc(-c3ccc([125I])cc3)no2)cc1 : 9.35
CN(C)c1ccc(-c2nc(-c3ccc([125I])cc3)no2)cc1 : 8.27
Nc1ccc(-c2nc(-c3ccc([125I])cc3)no2)cc1 : 17.37

CNc1ccc(-c2nc(-c3ccc([125I])cc3)no2)cc1 has a reported Drug uptake of 12.37

====

- Tested on: Stomach
- test_description: Biodistribution in ddY mouse stomach at 0.5 uCi, iv after 2 mins
- Format: ADME, organism-based
- run_parameters: in vivo
quantity_kind: Drug uptake
Answer format: value, then unit.

Nc1ccc(-c2nc(-c3ccc([125I])cc3)no2)cc1 : 0.92 % ID/organ
CN(C)c1ccc(-c2nc(-c3ccc([125I])cc3)no2)cc1 : 1.28 % ID/organ
CNc1ccc(-c2nc(-c3ccc([125I])cc3)no2)cc1 : 1.08 % ID/organ

For the next question, use this compound.
Note to self: Drug uptake recorded for COc1ccc(-c2nc(-c3ccc([125I])cc3)no2)cc1 was 0.62 % ID/organ

Reference source for all entries: ChEMBL document CHEMBL1157526
